All values here come from PubChem BioAssay AID1259418.

Reported max activity values are given for each entry in this list.
PROTOCOL DESCRIPTION: inhibitors of Toxoplasma growth in IFN-γ-primed HeLa – cell-based, ME49Luc, luciferase, 72 h, dose response (AID 1259418)
ASSAY CONTEXT: T. gondii ME49Luc in IFN-y HeLa, stronger effect = lower value, -100% = high-dose IFN-γ control wells; at 19.5 µM unless noted
Hit rate of the full screen: of about 3,400 compounds, about 840 (25%) were called active. Inconclusive results (about 11%) are left out. A selection follows. Entries with a potency or affinity are not part of this list.
QUANTITY MEASURED: max activity

| COMPOUND | ENDPOINT VALUE |
| --- | --- |
| C=CCN1CCC2(CC1)CC(NCc1ccc(C)s1)c1ccccc1O2 (centres undefined) | -7.33% [at 1.2 µM] (inactive) |
| CCc1cccc(Nc2nc(-c3ccc(OC)cc3)nc3ccccc23)c1 | 18.8% [at 0.35 µM] (inactive) |
| COc1ccccc1-c1ccc(C2[C@@H]3CN(C(=O)c4ccncc4)C[C@H]2N3)cc1 (some centres undefined) | 32.2% (inactive) |
| CN1c2ccc(C#Cc3cccnc3)cc2[C@@H]2[C@@H](CCN2C(=O)c2cccc(F)c2)[C@H]1CO | 11.4% (inactive) |
| CCc1ccc2c(c1)cc(S(=O)(=O)c1ccccc1)c(=O)n2CC(=O)NCc1ccc(F)cc1 | 15.5% (inactive) |
| Cc1ccc2c(c1)cc(S(=O)(=O)c1ccccc1)c(=O)n2CC(=O)N1CCCC1 | -8.58% [at 5 µM] (inactive) |
| COc1ccc2c(c1)NC1(CCN(C(=O)c3ccccc3F)CC1)c1cccn1-2 | 8.8% [at 5 µM] (inactive) |
| COCCNC1=NCCNC12CCN(S(=O)(=O)c1ccc(C(C)C)cc1)CC2 | -6.8% [at 1.35 µM] (inactive) |
| COc1ccc(CNC(=O)CCC2N=C3c4ccccc4N=C(SCc4cc(=O)n5ccccc5n4)N3C2=O)cc1 (centres undefined) | 14.6% [at 1.35 µM] (inactive) |

* * *

PROTOCOL DESCRIPTION: inhibitors of Toxoplasma growth in IFN-γ-primed HeLa – cell-based, ME49Luc, luciferase, 72 h, dose response (AID 1259418)
ASSAY CONTEXT: T. gondii ME49Luc in IFN-y HeLa, stronger effect = lower value, -100% = high-dose IFN-γ control wells; at 19.5 µM unless noted
Screen size: about 3,400 compounds; about 840 (25%) were called active. About 11% were inconclusive and are not listed. Not all results are given here. Results with a measured potency or affinity are listed apart.

| COMPOUND | max activity |
| --- | --- |
| O=C(Cn1c(=O)c(S(=O)(=O)c2ccccc2)cc2ccccc21)NCc1ccco1 | 8.5% [at 0.16 µM] (inactive) |
| CC(C)[C@H](CO)Nc1nc(Nc2ccc(C(=O)O)c(Cl)c2)c2ncn(C(C)C)c2n1 | 10.1% [at 10 µM] (inactive) |
| CCOc1ccc(NC(=O)Nc2ccc(-c3nc(-c4cccc(Br)c4)co3)cc2)cc1 | 4.75% [at 10 µM] (inactive) |
| COc1ccc(-c2nc3c(s2)CN(S(=O)(=O)c2ccc(C(C)C)cc2)CC3)cc1 | 10.1% [at 0.16 µM] (inactive) |
| CCOC(=O)CSC1=Nc2ccccc2C2=NC(CC(=O)NC3CCCCC3)C(=O)N12 (centres undefined) | -18.7% [at 10 µM] (inactive) |
| COc1ccc(-c2nc(Cn3nnc(-c4nc(-c5ccc(Cl)c(F)c5)no4)c3C)c(C)o2)cc1 | -11.8% [at 10 µM] (inactive) |
| COc1ccc(NC(=O)CN2CCC3(CC2)N=C(c2ccc(F)cc2)C(=O)N3)cc1OC | -16.1% [at 10 µM] (inactive) |
| Cc1ccc(-c2coc(-c3ccc(NS(=O)(=O)c4cccc(Cl)c4)cc3)n2)cc1C | -24.2% [at 0.35 µM] (inactive) |
| COc1ccc(CC(=O)N2CCC3(CC2)Nc2cc(F)ccc2-n2cccc23)cc1 | 9.99% [at 0.16 µM] (inactive) |
